Overview of reported GI50 across a group of compounds:
# Test system: U251 CNS
Outcome Measure: GI50

Compound	Value
Cc1cccc2nc3cccc(C(=O)NCCC[N+](C)(CCCNC(=O)c4cccc5nc6cccc(C)c6nc45)Cc4c([N+](=O)[O-])ncn4C)c3nc12	18.2 µM
Cc1ccccc1S(=O)(=O)N1[C@H](c2ccc(Cl)cc2)C(C(=O)N[C@@H](Cc2ccccc2)C(N)=O)=C[C@@H]1C(C)(C)C	5.28 µM
O=S1(=O)N(Cc2ccccc2)[C@@H](Cc2ccccc2)C2O[C@H]2[C@H](Cc2ccccc2)N1Cc1ccccc1 (some centres undefined)	1.84 µM
CCCCCCOc1ccc(/C=N/NC(N)=S)cc1	7.96 µM

Values compiled from PubChem BioAssay (NCI).
